measured endpoint: intrinsic clearance, human liver microsomes (mL/min/kg)

In the examples that follow, each entry is paired with its recorded intrinsic clearance, human liver microsomes.
CC(=O)N1CCC(Cn2ccnc2-c2cc3ccccc3s2)CC1 :: 46.5
CSCCc1nc(-c2cc(C)nc3cc(F)ccc23)n(CCO)n1 :: 16.9
c1ccc(-c2n[nH]c(C3CCN(c4ccccn4)CC3)n2)cc1 :: 15.8
Cc1cc(CNc2ncc(C(F)(F)F)cc2Cl)no1 :: 64.6
Fc1cccc(CN2CCN(c3ncccn3)CC2)c1 :: 111
CCN1CCc2ncnc(N(C)Cc3ccc4c(c3)OCCO4)c2C1 :: 114

[P] Cc1cnc(-n2cnnc2)c(-c2cccc(Cl)c2Cl)c1
[Q] C[C@H](Cn1nc2c(cc1=O)CCCCC2)NC(=O)Cc1cccs1
Pick one: P or Q . Which one has the lower reported intrinsic clearance, human liver microsomes? Your answer should be the label of the entry you select. P

[a] O=C(CCCc1cc(Cl)sc1Cl)N1CCC(O)CC1
[b] CC(=O)N1CCC2(C=Cc3cc(C)c(C)cc3O2)CC1
Just tell me: smaller intrinsic clearance, human liver microsomes value, a or b ? Selection: enter the item's label. b

[1] CCN1CCN(S(=O)(=O)Cc2ccc(Cl)c(Cl)c2)CC1
[2] CN(CC1CCC1)C(=O)C1CCN(c2ccc3nncn3n2)CC1
Which gives the smaller intrinsic clearance, human liver microsomes number: 1 or 2 ? Refer to your chosen item by its label in the answer. 2
(2: 7.72 mL/min/kg, 1: 82.8 mL/min/kg)

[I] CS(=O)(=O)CCc1nc(C2(c3ccccc3)CC2)nn1-c1ccccc1
[II] CC(C)(C)c1ccc(C(=O)Nc2cn3cc(-n4ccnc4)ccc3n2)cc1
[III] Cc1nc(Cl)cc(Nc2ccc3c(c2)N(C)C(=O)CO3)n1
Falling order of intrinsic clearance, human liver microsomes, please. // format: requested-order list of labels II, III, I

The values you see were collected from the Biogen ADME set (Fang et al. 2023).
